target: T1, hK1 (human tissue kallikrein 1), recombinant (human, UniProt P06870 25-262); test: SPR
T1 construct: Expressed in P. pastoris from KLK1 cDNA and purified; enzymatically active; also called KLK1; Recombinant (Pichia) Kallikrein
Recorded pKd for the following binders
Field pKd (float): negative decimal logarithm of the concentration in molar.

// known answers, use as guide
binder	pKd
M0101-E01 (Fab, V domains shown) VH: EVQLLESGGGLVQPGGSLRLSCAASGFTFSPYIMSWVRQAPGKGLEWVSSIVSSGGVTLYADSVKGRFTISRDNSKNTLYLQMNSLRAEDTAVYYCTKNINLRYDILTGYFDIWGQGTTVTVSS VL: DIQMTQSPSSVSASVGDRVTITCRAGQNIYYWLAWYQQKPGKAPQLLIYAASSLQSGVPSRFSGSGSGTDFTLTISSLQPEDFATYYCQQAKSFPVTFGGGTKVEIKR	8.01
M0126-C10 (Fab, V domains shown) VH: EVQLLESGGGLVQPGGSLRLSCAASGFTFSHYKMHWVRQAPGKGLEWVSSIWPSGGGTFYADSVKGRFTISRDNSKNTLYLQMNSLRAEDTAMYYCARTSGGFGAFDIWGQGTMVTVSS VL: DIQMTQSPSSLSASVGDRVTITCRAGQTINNYLNWYQQKPGKAPNLLIYAASNLQSGVPSRFSGSKSGTDFTLTISSLQPEDFATYHCQQTYRTPFTFGGGTRVEIKG	7.84
M0108-E11 (Fab, V domains shown) VH: EVQLLESGGGLVQPGGSLRLSCAASGFTFSNYSMMWVRQAPGKGLEWVSSIYPSGGFTKYADSVKGRFTISRDNSKNTLYLQMNSLRAEDTAVYYCARVGFYGGFVWGQGTTVTVSS VL: AQYELTQPASVSGSPGQSITISCTATSSDLGSYNFVSWYQQHPDKAPKLMIFEVSRRPSGVSNRFSGSKSGNTASLTISGLQAEDEADYYCCSYAGSNTYVFGTGTKVTVLG	8.07
M0138-E12 (Fab, V domains shown) VH: EVQLLESGGGLVQPGGSLRLSCAASGFTFSWYVMRWVRQAPGKGLEWVSSIYPSGGQTRYADSVKGRFTISRDNSKNTLYLQMNSLRAEDTAMYYCATGYSSTWGAFDIWGQGTMVTVSS VL: AQSALTQPASVSGSPGQSITISCSGTSSDVGAYYHVSWYQQHPGKAPKLMIYEVTNRPSGISNRFSGSKSGNTASLTISGLQADDEADYFCSSYTTSNTLVFGGGTKVTVLG	8.00
M0138-C04 (Fab, V domains shown) VH: EVQLLESGGGLVQPGGSLRLSCAASGFTFSHYHMQWVRQAPGKGLEWVSGIRSSGGVTGYSDSVKGRFTISRDNSKNTLYLQMNSLRAEDTAVYYCAREVTMVRGVYYYYYGMDVWGQGTTVTVSS VL: AQYELTQPASVSGSPGQSITISCTGTSSDVGAYNYVSWYQHHPGKAPKLLIYDVSNRPSGISSRFSGSKSGNTASLTISGLQAEDEADYYCSSYTSSYTWVFGGGTKLTVLS	8.37
M0121-H07 (Fab, V domains shown) VH: EVQLLESGGGLVQPGGSLRLSCAASGFTFSKYYMVWVRQAPGKGLEWVSVIGPSGGWTTYADSVKGRFTISRDNSKNTLYLQMNSLRAEDTAVYYCARVDYSNYFDYWGQGTLVTVSS VL: DIQMTQSPSSLSASVGDRVTITCRASQSISRYLNWYQQKPGKAPKLLIYAASNLQSGVPSRFSGSGSGRDYTLTISSLQPEDFVTYYCQQSYSTPWTFGQGTKVEIKR	7.48
M0131-F09 (Fab, V domains shown) VH: EVQLLESGGGLVQPGGSLRLSCAASGFTFSHYVMQWVRQAPGKGLEWVSGIGPSGGSTTYADSVKGRFTISRDNSKNTLYLQMNSLRAEDTAVYYCARVGVWYGMDVWGQGTTVTVSS VL: DIQMTQSPATLSLSPGERATLSCRASQSVSSYLAWYQQKPGQAPRLLIYDASNRATGIPARFSGSGSGTDFTLTISSLEPEDFAVYYCQQRSNWLWTFGQGTKVEIKR	8.63
M0122-G06 (Fab, V domains shown) VH: EVQLLESGGGLVQPGGSLRLSCAASGFTFSWYAMHWVRQAPGKGLEWVSVISPSGGATRYADSVKGRFTISRDNSKNTLYLQMNSLRAEDTAVYYCVRASTVTTLFQHWGQGTLVTVSS VL: AQSALTQPASVSGSPGQSITISCTGTSSDVGGYNYVSWYQQHPGKAPKLMIYDVSKRPSGVSNRFSGSKSGNTASLTISGLQAEDEADYYCSSYTSSITLVVFGGGTKLTVLS	7.82

Short answer for M0097-G01 (Fab, V domains shown) VH: EVQLLESGGGLVQPGGSLRLSCAASGFTFSPYYMQWVRQAPGKGLEWVSGISSSGGSTQYADSVKGRFTISRDNSKNTLYLQMNSLRAEDTAVYYCARSQRRTYYPNFGDAFDIWGQGTMVTVSS VL: DIQMTQSPSSLSASVGDRVTITCRASQGIGNYLVWYQHKPGNVPRVLIYAASTLQSGVPSRFRGSGSGTDFTLTISGLQPEDVATYYCQKYDGAPFTFGPGTKVDLKR : pKd was 8.32

Short answer for M0103-E09 (Fab, V domains shown) VH: EVQLLESGGGLVQPGGSLRLSCAASGFTFSHYSMLWVRQAPGKGLEWVSSIRPSGGFTKYADSVKGRFTISRDNSKNTLYLQMNSLRAEDTAVYYCARRGVWDAFDIWGQGTMVTVSS VL: AQYELTQPASVSGSPGQSITISCTGTNTDVGGYNFVSWYQQYPGKAPKLIIFDVTNRPSGVSNRFSGSKSGNTASLTISGLQAEDEADYYCCSYTNTNTLVFAGGTKVTVLG : pKd was 7.44
